- System: M17-TAU P301L cells
- test_name: TAU cytotoxicity assay: LDH leakage of retinoic acid incubated M17-TAU P301L cells
- Format: cell-based, human
- reported_conditions: Homo sapiens, 168 h, reduction of LDH activity of retinoic acid incubated M17-TAU P301L cells, 7 days
- Source text: A TAU expression plasmid was constructed by sub-cloning the cDNA of human TAU-P301 L (encoding for TAU with proline 301 substituted by a leucine residue) into mammalian expression vector pcDNA3.1 resulting in plasmid pcDNA3.1-TAU P301L. […] Exemplary compounds of the present invention are shown in table 2, with their chemical name and their EC50 value (expressed in nM) as determined from example 196 in the Tau-induced toxicity experiment.
# EC50 per record follows
measured_endpoint: EC50 (nM)

- compound: "O=C(NCCc1c[nH]c2ccc(Cl)cc12)c1csc(-c2ccccc2)n1 [Example D67]"
  measured_endpoint: "EC50"
  output_unit: "nM"
  measured_result: 333
- compound: "CCc1cccc(N2CCC(C(=O)NCCc3c[nH]c4ccc(Cl)cc34)C2=O)c1 (centres unmarked) [Example D82]"
  measured_endpoint: "EC50"
  output_unit: "nM"
  measured_result: 939
- compound: "O=C(NCCc1c[nH]c2ccc(F)cc12)c1cc(Cc2cccc(F)c2)on1 [Example D28]"
  measured_endpoint: "EC50"
  output_unit: "nM"
  measured_result: 41
- compound: "Cc1ccc(-c2nc(C)c(C(=O)NCCc3c[nH]c4ccc(Cl)cc34)s2)cc1 [Example D45]"
  measured_endpoint: "EC50"
  output_unit: "nM"
  measured_result: 113
- compound: "O=C(NCCc1c[nH]c2ccc(Cl)cc12)c1noc(Cc2ccccc2Cl)n1 [Example D191]"
  measured_endpoint: "EC50"
  output_unit: "nM"
  measured_result: 25
- compound: "O=C(CCc1c[nH]c2ccc(Cl)cc12)N1CCN(Cc2ccccc2)C1 [Example D126]"
  measured_endpoint: "EC50"
  output_unit: "nM"
  measured_result: 357
- compound: "Cc1ccc(N2CCC(C(=O)NCCc3c[nH]c4ccc(Cl)cc34)C2=O)cc1 (centres unmarked) [Example D133]"
  measured_endpoint: "EC50"
  output_unit: "nM"
  measured_result: 46
- compound: "Cc1ccc(N2CCC(C(=O)NCCc3c[nH]c4ccc(Cl)cc34)C2)cc1 (centres unmarked) [Example D165]"
  measured_endpoint: "EC50"
  output_unit: "nM"
  measured_result: 188
